Reported stability in PBS buffer (percent of parent remaining) is given for each of the following molecules.
- method-description: Chemical stability in aqueous solution
- Format: physicochemical
- test-settings: PBS buffer pH 7.4 with 0.2% Triton X-100; 60 min, 37 °C
Write the value in % as a bare number.

Reference set, count: 3
molecule=N#Cc1ccc(OC(=O)NCCCCCn2ccc3ccc(F)cc32)cc1 quantitative_result=12
molecule="O=C(OC(C(F)(F)F)C(F)(F)F)N1CCN(Cc2ccc(C(F)(F)F)cc2N2CCCC2)CC1 [ABX-1431 (2), reference compound]" quantitative_result=90
molecule=Cc1ccc(OC(=O)NCCCCCn2ccc3ccc(F)cc32)cn1 quantitative_result=82

Switching to the query record.
Task item: Suppose we examine the molecule `N#Cc1cccc(OC(=O)NCCCCCn2ccc3ccc(F)cc32)c1` ; what stability in PBS buffer (percent of parent remaining) value has been reported?
Reply: 72

----------
- system-name: FAAH (Rattus norvegicus, UniProt P97612)
- Sequence (P97612 1-579): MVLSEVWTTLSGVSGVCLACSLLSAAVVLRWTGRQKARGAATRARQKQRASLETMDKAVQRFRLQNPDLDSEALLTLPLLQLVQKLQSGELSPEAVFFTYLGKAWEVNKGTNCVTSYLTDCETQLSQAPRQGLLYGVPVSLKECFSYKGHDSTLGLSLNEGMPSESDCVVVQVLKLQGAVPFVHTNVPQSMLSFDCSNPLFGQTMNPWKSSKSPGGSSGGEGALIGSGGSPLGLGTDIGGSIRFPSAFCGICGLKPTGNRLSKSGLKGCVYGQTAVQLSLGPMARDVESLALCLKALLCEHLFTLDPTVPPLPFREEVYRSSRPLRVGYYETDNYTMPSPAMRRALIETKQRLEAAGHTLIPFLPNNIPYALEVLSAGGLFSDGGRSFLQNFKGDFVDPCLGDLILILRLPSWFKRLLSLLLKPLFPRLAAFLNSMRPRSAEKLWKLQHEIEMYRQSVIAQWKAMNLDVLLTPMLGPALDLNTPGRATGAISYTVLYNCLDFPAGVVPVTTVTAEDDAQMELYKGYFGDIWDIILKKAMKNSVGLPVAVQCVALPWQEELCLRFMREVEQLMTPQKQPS
pIC50: −log10 of the molar value.
Output 1 for pIC50 not less than 8; output 0 otherwise.

compound="Cc1cncc(OC(=O)NCCCCCn2ccc3ccc(F)cc32)c1 [Compound 47]" answer_label=1
compound="O=C(O)Cc1ccccc1OC(=O)NCCCCCn1ccc2ccc(F)cc21 [Compound 43]" answer_label=0

Next:
Task item: Does the compound Cc1ccc(OC(=O)NCCCCCn2ccc3ccc(F)cc32)cn1 [Compound 48] have recorded pIC50 that is 8 or more?
Reply: 1

----------
- system-name: FAAH (Rattus norvegicus)
Reported pIC50 is given for each of the following compounds.
// field semantics: pIC50 = negative decimal log of concentration (mol/L)

Reference set, count: 3
mol_smiles=O=C(NCCCCCn1ccc2ccc(F)cc21)Oc1ccccc1 quantitative_result=7.54
mol_smiles=O=C(NCCCCCCCCn1ccc2ccc(F)cc21)Oc1ccccc1 quantitative_result=6.89
mol_smiles=O=C(NCCCCCn1ccc2ccc(F)cc21)Oc1cccnc1 quantitative_result=8.70

Task item: // fetch FAAH (Rattus norvegicus) pIC50 for `O=C(NCCCCCn1ccc2ccc(F)cc21)Oc1cccc2[nH]ccc12`
Reply: 6.74

Task item: // fetch FAAH (Rattus norvegicus) pIC50 for `O=C(NCCCCCCn1ccc2ccc(F)cc21)Oc1ccccc1`
Reply: 7.07
